Target: Cdc42 ACT (Cdc42Q61L) (Homo sapiens, UniProt P60953, Q61L)
Sequence (P60953 whole entry Q61L): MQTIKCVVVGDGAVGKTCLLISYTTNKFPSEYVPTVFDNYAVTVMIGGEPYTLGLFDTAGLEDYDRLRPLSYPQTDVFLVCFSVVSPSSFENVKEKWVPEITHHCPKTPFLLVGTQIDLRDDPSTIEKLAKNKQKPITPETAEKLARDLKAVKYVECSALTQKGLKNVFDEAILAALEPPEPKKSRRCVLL
Assay: Bead-based flow cytometry dose response, BODIPY-FL-GTP binding
Details: in the presence of Mg ions; read-out: EC50 for Cdc42(Q61L)
Method: Bead sets for multiplex assays were custom synthesized by Duke Scientific Corp (Fremont, Calif.), but may now be ordered from Thermo/Fisher. […] The resulting time-dependent data (one file per plate) were analyzed using IDLQuery software to determine the compound activity in each well. […] Gating based on FL8 emission distinguishes the beads coated with different proteins, and the median fluorescence per bead population was calculated. […]
pEC50: −log10 of the molar value.
assay-readout: pEC50

>  <compound>
COc1ccc(C2CC(c3ccccc3)=NN2c2ccc(S(N)(=O)=O)cc2)cc1 (stereo not shown) [MLS000693334]

>  <test-target>
Cdc42 ACT (Cdc42Q61L) (Homo sapiens, UniProt P60953, Q61L)

>  <measured-result>
~5.40

$$$$

The origin of these recorded values is patent US9642835B2.
